# MEASURED_TARGET: KRAS G12D (Homo sapiens, UniProt P01116, G12D)
# Sequence (P01116 1-188 isoform P01116-2 G12D): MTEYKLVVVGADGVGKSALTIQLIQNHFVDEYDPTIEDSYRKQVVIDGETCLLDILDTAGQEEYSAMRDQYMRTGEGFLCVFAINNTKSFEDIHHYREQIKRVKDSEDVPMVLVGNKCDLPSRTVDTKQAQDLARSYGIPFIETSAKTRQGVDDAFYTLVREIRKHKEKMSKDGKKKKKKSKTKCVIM
# PROTOCOL_DESCRIPTION: GDP-GTP exchange assay (bodipy-GDP/GppNHp, SOS1), KRAS G12D
# DETAILS: 2.5 nM bodipy-loaded KRAS G12D, 4 h pre-incubation, 2 h reaction with GppNHp and SOS1; for certain compounds the most potent isomer is quoted; read-out: KRAS_G12D exchange assay IC50
OBSERVABLE: IC50

The following molecules have reported results that may help.
Cc1nc2c(F)c(-c3cccc(Cl)c3Cl)c(CCC#N)cc2c2c1cc([C@H]1[C@H]3C[C@H](C[C@@H]3Oc3cccnc3)N1C(=O)C1CC1)n2C1[C@H]2CN[C@@H]1C2 (stereo partly drawn) [Example 27] | ≤ 100 nM
COC(=O)N1[C@@H]2C[C@@H]([C@@H](OC(F)(F)F)C2)[C@@H]1c1cc2c(C)nc3c(F)c(-c4cccc(Cl)c4Cl)c(CCC#N)cc3c2n1[C@H]1[C@H]2CN[C@@H]1C2 (atropisomer, axis not shown; (Ra)) [Example 40] | ≤ 100 nM
C[C@@H](O)c1nc2c(F)c(-c3cccc(Cl)c3Cl)c(CCC#N)cc2c2c1cc([C@H]1[C@H]3C[C@H](C[C@@H]3OC3CC3)N1C(=O)C1(F)CC1)n2[C@H]1[C@H]2CN[C@@H]1C2 (single isomer, unassigned) [Example 38] | ≤ 100 nM
Cc1nc2c(F)c(-c3cccc(Cl)c3Cl)c(CCC#N)cc2c2c1cc([C@H]1[C@@H]3CC[C@@H](C3)N1C(=O)C1CC1)n2[C@H]1[C@H]2CN[C@@H]1C2 [Example 11] | ≤ 100 nM
CC(C)(O)c1ccc(-c2nc3c(F)c(-c4cccc(Cl)c4Cl)c(CCC#N)cc3c3c2cc([C@H]2[C@@H]4CC[C@@H](C4)N2C(=O)C2CC2)n3[C@H]2[C@H]3CN[C@@H]2C3)cn1 [Example 13] | ≤ 100 nM

[ask] Which IC50 is reported with KRAS G12D (Homo sapiens, UniProt P01116, G12D) for this entry: Cc1nc2c(F)c(-c3cccc(Cl)c3Cl)c(CCC#N)cc2c2c1cc([C@H]1[C@H]3C[C@H](C[C@H]3C)N1C(=O)C1CC1)n2C1[C@H]2CN[C@@H]1C2 (stereo partly drawn) [Example 18] ?
[reply] ≤ 100 nM

[ask] Also need Cc1nc2c(F)c(-c3cccc(Cl)c3Cl)c(CCC#N)cc2c2c1cc([C@H]1[C@H]3C[C@H](C[C@H]3O)N1C(=O)C1CC1)n2C1[C@H]2CN[C@@H]1C2 (stereo partly drawn) [Example 21] , thanks.
[reply] 100 to 1000 nM

[ask] Also need Cc1nc2c(F)c(-c3cccc(Cl)c3Cl)c(CCC#N)cc2c2c1cc([C@H]1[C@H]3CC[C@H](C3)N1C(=O)C1CC1)n2C1C2CNC1C2 (stereo partly drawn) [Example 25] , thanks.
[reply] 1000 to 5000 nM

[ask] Also need C[C@@H](O)c1nc2c(F)c(-c3cccc(Cl)c3Cl)c(CCC#N)cc2c2c1cc([C@H]1[C@H]3C[C@H](C[C@@H]3F)N1C(=O)C1(F)CC1)n2[C@H]1[C@H]2CN[C@@H]1C2 (single isomer, unassigned) [Example 8] , thanks.
[reply] ≤ 100 nM

---

Reported IC50 by item:
# MEASURED_TARGET: KRAS G12V (Homo sapiens, UniProt P01116, G12V)
# Sequence (P01116 1-188 isoform P01116-2 G12V): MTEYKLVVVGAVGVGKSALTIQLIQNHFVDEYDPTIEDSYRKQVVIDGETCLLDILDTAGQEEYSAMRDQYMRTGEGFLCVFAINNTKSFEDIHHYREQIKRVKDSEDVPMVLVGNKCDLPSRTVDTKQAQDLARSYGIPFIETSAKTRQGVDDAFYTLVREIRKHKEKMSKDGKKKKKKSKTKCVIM
# PROTOCOL_DESCRIPTION: GDP-GTP exchange assay (bodipy-GDP/GppNHp, SOS1), KRAS G12V
# DETAILS: 2.5 nM bodipy-loaded KRAS G12V, 3 h incubation after adding GppNHp-SOS1; for certain compounds the most potent isomer is quoted; read-out: KRAS_G12V exchange assay IC50

Cc1nc2c(F)c(-c3cccc(Cl)c3Cl)c(CCC#N)cc2c2c1cc([C@H]1[C@H]3C[C@H](C[C@@H]3C(F)F)N1C(=O)C1CC1)n2[C@H]1[C@H]2CN[C@@H]1C2 (atropisomer, axis not shown; (Ra)) | ≤ 0.1 µM

Please turn your attention to the following entry.
[ask] I would be grateful if you could share the reported IC50 for Cc1nc2c(F)c(-c3cccc(Cl)c3Cl)c(CCC#N)cc2c2c1cc([C@H]1[C@H]3C[C@H](C[C@@H]3OC(F)F)N1C(=O)C1(F)CC1)n2[C@H]1[C@H]2CN[C@@H]1C2 (atropisomer, axis not shown; (Ra)) .
[reply] ≤ 0.1 µM

---

# MEASURED_TARGET: KRAS G12V (Homo sapiens, UniProt P01116, G12V)
# PROTOCOL_DESCRIPTION: GDP-GTP exchange assay (bodipy-GDP/GppNHp, SOS1), KRAS G12V
# Type: biochemical
# DETAILS: 2.5 nM bodipy-loaded KRAS G12V, 3 h incubation after adding GppNHp-SOS1; for certain compounds the most potent isomer is quoted; read-out: KRAS_G12V exchange assay IC50
OBSERVABLE: IC50

The following molecules have reported results that may help.
CO[C@H]1C[C@H]2C[C@@H]1[C@H](c1cc3c(C)nc4c(F)c(-c5cccc(Cl)c5Cl)c(CCC#N)cc4c3n1[C@H]1[C@H]3CN[C@@H]1C3)N2C(=O)C1CC1 | ≤ 0.1 µM
COC(=O)N1[C@@H]2C[C@@H]([C@@H](OC(F)F)C2)[C@@H]1c1cc2c(C)nc3c(F)c(-c4cccc(Cl)c4Cl)c(CCC#N)cc3c2n1[C@H]1[C@H]2CN[C@@H]1C2 (atropisomer, axis not shown; (Ra)) | ≤ 0.1 µM
Cc1nc2c(F)c(-c3cccc(Cl)c3Cl)c(CCC#N)cc2c2c1cc([C@H]1[C@H]3C[C@H](C[C@@H]3OC(F)(F)F)N1C(=O)C1CC1)n2[C@H]1[C@H]2CN[C@@H]1C2 (atropisomer, axis not shown; (Ra)) | ≤ 0.1 µM

Please turn your attention to the following entry.
[ask] Which IC50 is reported with KRAS G12V (Homo sapiens, UniProt P01116, G12V) for this entry: C[C@@H](O)c1nc2c(F)c(-c3cccc(Cl)c3Cl)c(CCC#N)cc2c2c1cc([C@H]1[C@H]3C[C@H](C[C@H]3Cl)N1C(=O)C1(F)CC1)n2[C@H]1[C@H]2CN[C@@H]1C2 (atropisomer, axis not shown) ?
[reply] ≤ 0.1 µM

---

# MEASURED_TARGET: KRAS G12D (Homo sapiens, UniProt P01116, G12D)
# PROTOCOL_DESCRIPTION: GDP-GTP exchange assay (bodipy-GDP/GppNHp, SOS1), KRAS G12D
# Type: biochemical
# DETAILS: 2.5 nM bodipy-loaded KRAS G12D, 4 h pre-incubation, 2 h reaction with GppNHp and SOS1; for certain compounds the most potent isomer is quoted; read-out: KRAS_G12D exchange assay IC50
OBSERVABLE: IC50

The following compounds have reported results that may help.
Cc1nc2c(F)c(-c3cccc(Cl)c3Cl)c(CCC#N)cc2c2c1cc([C@H]1[C@H]3C[C@H](C[C@@H]3OC(F)F)N1C(=O)C1(F)CC1)n2[C@H]1[C@H]2CN[C@@H]1C2 [Example 35] | ≤ 0.1 µM
Cc1nc2c(F)c(-c3cccc(Cl)c3Cl)c(CCC#N)cc2c2c1cc([C@H]1[C@H]3C[C@H](C[C@@H]3OC(F)F)N1C(=O)C1CC1)n2[C@H]1[C@H]2CN[C@@H]1C2 (atropisomer, axis not shown; (Ra)) | ≤ 0.1 µM
Cc1nc2c(F)c(-c3cccc(Cl)c3Cl)c(CCC#N)cc2c2c1cc([C@H]1[C@H]3C[C@H](C[C@@H]3OC(F)(F)F)N1C(=O)C1CC1)n2[C@H]1[C@H]2CN[C@@H]1C2 (atropisomer, axis not shown; (Ra)) | ≤ 0.1 µM
Cc1nc2c(F)c(-c3cccc(Cl)c3Cl)c(CCC#N)cc2c2c1cc([C@H]1[C@H]3C[C@H](C[C@H]3F)N1C(=O)C1CC1)n2C1[C@H]2CN[C@@H]1C2 (some centres unmarked) | ≤ 0.1 µM

Please turn your attention to the following entry.
[ask] Which IC50 is reported with KRAS G12D (Homo sapiens, UniProt P01116, G12D) for this entry: Cc1nc2c(F)c(-c3cccc(Cl)c3Cl)c(CCC#N)cc2c2c1cc([C@H]1[C@H]3C[C@H](C[C@@H]3OCc3ccccc3)N1C(=O)C1CC1)n2C1[C@H]2CN[C@@H]1C2 (some centres unmarked) ?
[reply] ≤ 0.1 µM

---

# MEASURED_TARGET: KRAS G12D (Homo sapiens, UniProt P01116, G12D)
# PROTOCOL_DESCRIPTION: GDP-GTP exchange assay (bodipy-GDP/GppNHp, SOS1), KRAS G12D
# DETAILS: 2.5 nM bodipy-loaded KRAS G12D, 4 h pre-incubation, 2 h reaction with GppNHp and SOS1; for certain compounds the most potent isomer is quoted; read-out: KRAS_G12D exchange assay IC50
OBSERVABLE: IC50

Cc1nc2c(F)c(-c3cccc(Cl)c3Cl)c(CCC#N)cc2c2c1cc([C@H]1[C@H]3C[C@H](C[C@@H]3OC(F)F)N1C(=O)C1CC1)n2C1[C@H]2CN[C@@H]1C2 (some centres unmarked) | ≤ 100 nM

Please turn your attention to the following entry.
[ask] I would be grateful if you could share the reported IC50 for CNC(=O)c1ccc(-c2nc3c(F)c(-c4cccc(Cl)c4Cl)c(CCC#N)cc3c3c2cc([C@H]2[C@@H]4CC[C@@H](C4)N2C(=O)C2CC2)n3[C@H]2[C@H]3CN[C@@H]2C3)cc1F .
[reply] ≤ 100 nM
